# Tested on: Escherichia coli TOP10;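 further: peptides expressed intracellularly from a pBAD plasmid library in pooled LB shake-flask culture, induced with 0.3% L-arabinose, DNA abundance read by NGS, three biological replicates, DESeq2 with apeglm shrinkage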
# protocol-text: shrunken log2 fold change of peptide-encoding DNA abundance (4.5 h post-induction vs induction); higher = less antimicrobial activity (less host growth inhibition)
# condition-set: time post-induction: 4.5 h; library: site-saturation at positions 5, 18, 19, 20
Returns one of Satisfied or Not satisfied; Satisfied when shrunken log2 fold change is >= -0.01.

Worked cases, answers included:
| sequence-string | study-system | category |
| --- | --- | --- |
| RRIRFRPPRLPRPRPRPKEIPRP | Escherichia coli TOP10 | Not satisfied |
| RRIRRRPPRLPRPRPRPINTPRP | Escherichia coli TOP10 | Not satisfied |
| RRIRCRPPRLPRPRPRPNHHPRP | Escherichia coli TOP10 | Not satisfied |
| RRIRRRPPRLPRPRPRPVGPPRP | Escherichia coli TOP10 | Not satisfied |
| RRIRMRPPRLPRPRPRPLYCPRP | Escherichia coli TOP10 | Not satisfied |
| RRIRCRPPRLPRPRPRPYDRPRP | Escherichia coli TOP10 | Not satisfied |

Q) Please indicate if the recorded shrunken log2 fold change for RRIRSRPPRLPRPRPRPCHTPRP meets or exceeds -0.01.
A) Satisfied

Q) What do we get for RRIRPRPPRLPRPRPRPITWPRP ?
A) Not satisfied

Q) What do we get for RRIRHRPPRLPRPRPRPFPVPRP ?
A) Satisfied
